biological target: VP1 pentamer of BKV genotype I (truncated VP1, residues 31 to 301, Dunlop sequence with Cys 104 replaced by Ser) (BK virus genotype I (Dunlop)) (UniProt P03088); assay: ELISA, coated VP1 pentamer
Sequence (P03088 31-301): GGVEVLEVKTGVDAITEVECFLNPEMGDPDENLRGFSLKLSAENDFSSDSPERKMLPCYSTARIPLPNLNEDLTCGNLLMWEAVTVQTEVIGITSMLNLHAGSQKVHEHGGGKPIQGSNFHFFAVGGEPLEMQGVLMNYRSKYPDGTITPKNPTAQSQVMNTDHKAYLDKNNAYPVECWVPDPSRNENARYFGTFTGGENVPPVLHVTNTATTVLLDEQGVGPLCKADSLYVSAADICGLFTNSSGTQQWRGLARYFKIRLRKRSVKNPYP
Test Readout: EC50 (µg/mL)
Lab book: enter the figure in µg/mL, no units written.

Binder	Display Unit	EC50
G5P1 (antibody, V domains shown) VH: QVQLQESGPGLVKPSGTLSLTCTVSGGSIRNSYWSWIRQPPGKGLEWIGYIYYTGTTNSNPSLKSRVTISVHMSRNQISLKLNSVTPADTAVYYCAQGGGSGDLHYWGQGTLVTVSS VL: NFMLTQPASVSGSPGQSITISCTGTRSDVGGYNYVSWYQQHPGKAPKLMIYDISSRPSGVSNRFSASKSGNTASLTISGLQAEDEADYYCISFATGYTWVFGGGTRLTVL	µg/mL	7

### Prompt Quick one: EC50 for C4P6 (antibody, V domains shown) VH: QVQLQESGPGLVRPSETLSLTCTVSGGSISPYYWNWIRQPPGKGLEWIGYIYYSGNTKYNPSLKSRVTISVDTSKNQFSLKLSSVSAADTAVYYCARDSCSGTCYLGGNWFDPWGQGTLVTVSS VL: QSVLTQPPSVSGAPGQRVTISCTGSSSNIGANNDVHWYQHLPGTAPKLLIYGNNHRPSGVPDRFSGSKSGTSASLAITGLQAEDEADYYCQSYDSSLSTSKVFGGGTKLTVL ?
### Response 1.5
